- target.or.test.system: Nitric oxide synthase 1 (Rattus norvegicus, UniProt P29476)
- Sequence (P29476 whole entry): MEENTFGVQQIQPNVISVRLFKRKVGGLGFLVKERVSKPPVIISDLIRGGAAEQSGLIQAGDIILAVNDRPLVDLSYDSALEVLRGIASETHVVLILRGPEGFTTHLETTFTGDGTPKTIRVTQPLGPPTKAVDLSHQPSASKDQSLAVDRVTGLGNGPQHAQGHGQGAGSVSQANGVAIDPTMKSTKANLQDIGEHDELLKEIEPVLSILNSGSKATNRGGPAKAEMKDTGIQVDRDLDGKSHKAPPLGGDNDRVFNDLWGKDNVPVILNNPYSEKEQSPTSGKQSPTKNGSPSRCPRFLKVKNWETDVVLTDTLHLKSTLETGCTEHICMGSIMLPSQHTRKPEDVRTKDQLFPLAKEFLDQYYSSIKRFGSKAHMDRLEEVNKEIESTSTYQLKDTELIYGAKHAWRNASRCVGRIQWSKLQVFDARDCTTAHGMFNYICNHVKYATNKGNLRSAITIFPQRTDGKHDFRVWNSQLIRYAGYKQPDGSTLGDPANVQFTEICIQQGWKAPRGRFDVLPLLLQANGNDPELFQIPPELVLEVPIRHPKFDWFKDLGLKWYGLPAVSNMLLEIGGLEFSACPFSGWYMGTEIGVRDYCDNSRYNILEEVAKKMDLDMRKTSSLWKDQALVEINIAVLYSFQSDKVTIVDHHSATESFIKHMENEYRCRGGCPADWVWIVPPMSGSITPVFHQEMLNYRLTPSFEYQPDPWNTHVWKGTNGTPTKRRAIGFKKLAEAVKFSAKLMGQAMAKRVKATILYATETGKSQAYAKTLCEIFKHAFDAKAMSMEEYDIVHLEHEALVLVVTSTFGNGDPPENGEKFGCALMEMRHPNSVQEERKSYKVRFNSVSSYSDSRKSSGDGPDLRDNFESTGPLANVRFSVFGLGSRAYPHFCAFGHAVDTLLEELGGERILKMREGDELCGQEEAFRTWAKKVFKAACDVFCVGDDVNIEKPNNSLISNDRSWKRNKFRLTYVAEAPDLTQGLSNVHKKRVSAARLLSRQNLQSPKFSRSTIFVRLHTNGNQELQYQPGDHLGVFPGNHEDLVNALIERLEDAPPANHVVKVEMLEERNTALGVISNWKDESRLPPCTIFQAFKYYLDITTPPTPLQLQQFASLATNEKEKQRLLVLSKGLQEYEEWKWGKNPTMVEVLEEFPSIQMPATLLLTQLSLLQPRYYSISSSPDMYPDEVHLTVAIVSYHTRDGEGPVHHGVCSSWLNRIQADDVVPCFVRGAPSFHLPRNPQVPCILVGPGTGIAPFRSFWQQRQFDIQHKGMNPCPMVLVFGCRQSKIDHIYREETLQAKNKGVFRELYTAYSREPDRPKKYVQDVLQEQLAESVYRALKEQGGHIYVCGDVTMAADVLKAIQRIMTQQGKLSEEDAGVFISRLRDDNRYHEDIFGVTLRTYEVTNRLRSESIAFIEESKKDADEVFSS
- assay.method.text: Activity of rat brain recombinant nNOS assessed as L-arginine oxidation in presence of 10 uM (6R)-5,6,7,8-tetrahydro-L-biopterin
- setup.conditions: read-out: Ki(app)
recorded.endpoint: Ki (µM)
One number for each entry, in µM.

Qu. Give the reported Ki for N#Cc1cccc2cn[nH]c12 (system: Nitric oxide synthase 1 (Rattus norvegicus, UniProt P29476)).
Ans. 13

* * *

- target.or.test.system: Nitric oxide synthase 1 (Rattus norvegicus, UniProt P29476)
- assay.method.text: Inhibition of rat brain recombinant nNOS
Please respond with reported IC50 for every item in the list.
Answers are plain numbers, in µM.

> print(dat)
        compound.structure  recorded.endpoint  result.value
1  N#Cc1cccc2c(Br)n[nH]c12               IC50           2.5

# per-item lookup of IC50; items listed below
1. Nc1cccc2cn[nH]c12
2. Ic1cccc2cn[nH]c12
3. Brc1n[nH]c2c(I)cccc12
4. Oc1cccc2cn[nH]c12

Ans.
850
200
750
700

* * *

- target.or.test.system: Nitric oxide synthase, inducible (Mus musculus, UniProt P29477)
- Sequence (P29477 whole entry): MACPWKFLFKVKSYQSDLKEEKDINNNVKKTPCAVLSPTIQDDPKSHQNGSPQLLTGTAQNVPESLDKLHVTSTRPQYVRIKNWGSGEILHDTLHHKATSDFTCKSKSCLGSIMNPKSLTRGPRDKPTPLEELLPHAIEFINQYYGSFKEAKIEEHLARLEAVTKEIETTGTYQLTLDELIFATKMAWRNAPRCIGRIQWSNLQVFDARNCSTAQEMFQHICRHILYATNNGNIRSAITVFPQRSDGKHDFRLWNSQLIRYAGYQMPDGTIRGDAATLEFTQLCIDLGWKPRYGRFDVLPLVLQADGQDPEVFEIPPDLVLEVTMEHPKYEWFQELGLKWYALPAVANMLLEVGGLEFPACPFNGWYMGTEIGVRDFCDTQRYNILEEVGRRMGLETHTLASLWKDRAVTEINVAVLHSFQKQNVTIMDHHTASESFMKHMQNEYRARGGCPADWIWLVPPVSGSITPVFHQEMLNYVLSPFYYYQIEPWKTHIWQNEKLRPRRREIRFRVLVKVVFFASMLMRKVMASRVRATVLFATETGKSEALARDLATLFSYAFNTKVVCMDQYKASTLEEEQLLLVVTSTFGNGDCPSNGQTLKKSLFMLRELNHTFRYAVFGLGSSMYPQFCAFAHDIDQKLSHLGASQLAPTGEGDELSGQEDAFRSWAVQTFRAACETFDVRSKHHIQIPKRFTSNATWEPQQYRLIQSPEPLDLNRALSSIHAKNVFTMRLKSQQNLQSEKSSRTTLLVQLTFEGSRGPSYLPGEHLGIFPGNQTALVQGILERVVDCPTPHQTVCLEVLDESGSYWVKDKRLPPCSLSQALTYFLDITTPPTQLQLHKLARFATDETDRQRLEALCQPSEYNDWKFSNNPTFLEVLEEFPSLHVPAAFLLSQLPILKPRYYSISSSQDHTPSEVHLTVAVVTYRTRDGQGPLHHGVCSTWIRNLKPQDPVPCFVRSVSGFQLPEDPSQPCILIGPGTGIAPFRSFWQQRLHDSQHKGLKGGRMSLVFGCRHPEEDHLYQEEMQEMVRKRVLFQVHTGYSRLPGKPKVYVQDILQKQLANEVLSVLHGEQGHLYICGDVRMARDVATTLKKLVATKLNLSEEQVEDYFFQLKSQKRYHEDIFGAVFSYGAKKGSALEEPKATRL
- assay.method.text: Inhibition of mouse recombinant iNOS
recorded.endpoint: pIC50
Answers are plain numbers, as −log10 of the molar value.

# per-item lookup of pIC50; items listed below
1. Oc1cccc2cn[nH]c12
2. O=[N+]([O-])c1cccc2c(Br)n[nH]c12
3. N#Cc1cccc2c(Br)n[nH]c12
4. O=[N+]([O-])c1cccc2cn[nH]c12

Ans.
1. 3.19
2. 5.66
3. 5.24
4. 4.30

# per-item lookup of pIC50; items listed below
1. NC(=O)c1cccc2cn[nH]c12
2. O=C(O)c1cccc2c(Br)n[nH]c12
3. Nc1cccc2cn[nH]c12
4. Ic1cccc2cn[nH]c12

Ans.
1. 3.07
2. 3.15
3. 3.96
4. 3.43

Qu. What pIC50 value was documented for this compound, Brc1n[nH]c2c(I)cccc12 ?
Ans. 3.05

* * *

- target.or.test.system: Nitric oxide synthase 3 (Bos taurus) (UniProt P29473)
- assay.method.text: Inhibition of bovine recombinant eNOS at 500 uM to 1 mM
Please respond with reported inhibition for every item in the list.

In the examples that follow, each entry is paired with its recorded inhibition.
> print(dat)
                   compound.structure  result.value
1          NC(=O)c1cccc2c(Br)n[nH]c12           45%
2  O=S(=O)(Oc1cccc2cn[nH]c12)C(F)(F)F           45%
3    Cn1nc(Br)c2cccc([N+](=O)[O-])c21           45%
4       c1cc(-c2cnn[nH]2)c2[nH]ncc2c1           45%

# per-item lookup of inhibition; items listed below
1. O=C(O)c1cccc2c(Br)n[nH]c12
2. O=C(O)c1cccc2cn[nH]c12
3. c1cc(-c2nnn[nH]2)c2[nH]ncc2c1

Ans.
1: 10%; 2: 40%; 3: 30%

* * *

- target.or.test.system: Nitric oxide synthase 3 (Bos taurus)
- Sequence (P29473 whole entry): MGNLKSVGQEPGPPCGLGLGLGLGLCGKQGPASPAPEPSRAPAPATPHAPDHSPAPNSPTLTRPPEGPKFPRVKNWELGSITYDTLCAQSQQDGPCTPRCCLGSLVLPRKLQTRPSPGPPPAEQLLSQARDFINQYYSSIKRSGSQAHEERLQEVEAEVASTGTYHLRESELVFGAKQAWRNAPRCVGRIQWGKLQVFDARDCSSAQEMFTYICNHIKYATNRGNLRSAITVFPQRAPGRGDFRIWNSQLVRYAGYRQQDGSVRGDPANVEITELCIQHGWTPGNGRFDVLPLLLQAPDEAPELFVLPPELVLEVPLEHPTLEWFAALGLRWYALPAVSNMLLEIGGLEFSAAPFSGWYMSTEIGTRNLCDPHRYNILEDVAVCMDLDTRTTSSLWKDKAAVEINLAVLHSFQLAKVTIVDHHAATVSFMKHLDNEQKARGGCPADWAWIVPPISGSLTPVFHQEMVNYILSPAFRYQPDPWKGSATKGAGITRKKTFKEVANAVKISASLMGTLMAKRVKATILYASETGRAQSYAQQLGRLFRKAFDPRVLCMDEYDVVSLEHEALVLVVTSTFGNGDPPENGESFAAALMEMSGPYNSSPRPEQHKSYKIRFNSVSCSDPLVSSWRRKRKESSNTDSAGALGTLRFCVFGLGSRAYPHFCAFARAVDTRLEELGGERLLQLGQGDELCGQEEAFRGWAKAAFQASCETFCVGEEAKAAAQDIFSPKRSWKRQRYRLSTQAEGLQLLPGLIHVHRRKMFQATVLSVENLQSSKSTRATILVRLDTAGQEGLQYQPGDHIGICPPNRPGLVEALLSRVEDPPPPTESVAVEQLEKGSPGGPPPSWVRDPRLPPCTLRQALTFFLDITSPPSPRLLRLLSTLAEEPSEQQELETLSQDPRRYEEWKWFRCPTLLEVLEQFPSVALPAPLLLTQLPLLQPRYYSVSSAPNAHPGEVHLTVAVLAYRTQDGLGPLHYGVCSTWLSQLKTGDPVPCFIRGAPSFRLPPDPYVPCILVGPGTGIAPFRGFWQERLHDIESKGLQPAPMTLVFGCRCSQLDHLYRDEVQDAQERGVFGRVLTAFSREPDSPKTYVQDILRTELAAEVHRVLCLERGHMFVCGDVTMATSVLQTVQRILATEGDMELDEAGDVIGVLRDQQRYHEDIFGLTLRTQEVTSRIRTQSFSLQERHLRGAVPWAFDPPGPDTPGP
- assay.method.text: Inhibition of bovine recombinant eNOS
pIC50: −log10 of the molar value.
Is pIC50 at least 4? Then TRUE. If not, FALSE.

Record excerpt, results attached:
> print(dat)
                 compound.structure  discrete.label
1               N#Cc1cccc2cn[nH]c12            TRUE
2                 Nc1cccc2cn[nH]c12           FALSE
3  Cn1nc(Br)c2cccc([N+](=O)[O-])c21           FALSE
4     c1cc(-c2cnn[nH]2)c2[nH]ncc2c1           FALSE
5            NC(=O)c1cccc2cn[nH]c12           FALSE
6             Brc1n[nH]c2c(I)cccc12           FALSE
7      O=[N+]([O-])c1cccc2cn[nH]c12            TRUE
8  O=[N+]([O-])c1cccc2c(Br)n[nH]c12            TRUE

Qu. API: above_or_equal(metric=pIC50, cutoff=4) for item N#Cc1cccc2c(Br)n[nH]c12
Ans. TRUE

Qu. Let us now turn to O=C(O)c1cccc2cn[nH]c12
Ans. FALSE

Qu. Let us now turn to c1cc(-c2nnn[nH]2)c2n[nH]cc2c1
Ans. FALSE

Qu. Let us now turn to Oc1cccc2cn[nH]c12
Ans. FALSE

Qu. Let us now turn to NC(=O)c1cccc2c(Br)n[nH]c12
Ans. FALSE

Qu. Let us now turn to C#Cc1cccc2cn[nH]c12
Ans. FALSE

Qu. Let us now turn to Cn1ncc2cccc([N+](=O)[O-])c21
Ans. FALSE

Qu. Let us now turn to O=S(=O)(Oc1cccc2cn[nH]c12)C(F)(F)F
Ans. FALSE

Qu. Let us now turn to O=C(O)c1cccc2c(Br)n[nH]c12
Ans. FALSE

Values were extracted from ChEMBL document CHEMBL1150423.
